Catalogue of compounds with associated IC50
- Test System: human VR1 (Homo sapiens)
- Sequence (Q8NER1 whole entry): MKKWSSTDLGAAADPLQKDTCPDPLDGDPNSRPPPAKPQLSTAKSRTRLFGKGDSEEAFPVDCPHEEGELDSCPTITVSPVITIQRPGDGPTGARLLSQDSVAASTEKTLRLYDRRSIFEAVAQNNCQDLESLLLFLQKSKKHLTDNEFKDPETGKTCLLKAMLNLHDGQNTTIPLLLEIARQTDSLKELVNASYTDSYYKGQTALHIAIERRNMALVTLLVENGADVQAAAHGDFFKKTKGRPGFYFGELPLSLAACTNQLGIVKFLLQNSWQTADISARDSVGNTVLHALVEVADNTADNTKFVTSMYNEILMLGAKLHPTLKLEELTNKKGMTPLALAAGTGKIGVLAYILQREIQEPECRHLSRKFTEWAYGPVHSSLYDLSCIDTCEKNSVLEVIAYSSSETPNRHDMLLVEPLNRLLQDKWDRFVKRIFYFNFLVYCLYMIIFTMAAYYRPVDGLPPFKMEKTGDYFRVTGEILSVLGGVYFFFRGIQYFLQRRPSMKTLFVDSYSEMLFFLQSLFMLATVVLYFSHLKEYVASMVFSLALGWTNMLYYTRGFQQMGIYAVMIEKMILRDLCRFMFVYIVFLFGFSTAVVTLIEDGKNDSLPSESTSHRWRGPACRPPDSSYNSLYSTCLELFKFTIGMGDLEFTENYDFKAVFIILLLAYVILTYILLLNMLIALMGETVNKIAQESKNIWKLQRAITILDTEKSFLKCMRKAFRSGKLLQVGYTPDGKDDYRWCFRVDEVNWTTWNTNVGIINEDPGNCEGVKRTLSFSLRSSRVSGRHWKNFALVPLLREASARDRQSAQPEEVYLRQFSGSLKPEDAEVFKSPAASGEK
- Assay Procedure: Inhibition of Ca2+ entry in cells caused by proton, in rat glioma (C6BU1) cells stably expressing human VR1 (Fura 2 fluorescence)
- Applied Conditions: inhibition of proton-induced Ca2+ entry

Record excerpt, results attached:
> print(dat)
                                 cpd.smiles  measurement.name    result
1  COc1ccc(N2c3cccc(C(=O)Nc4ccc(OC(F)(F)F)cc4)c3OC[C@@H]2CO)cc1              IC50  < 100 nM
2  CCOc1ccc(NC(=O)c2cccc3c2OCCN3c2ccc(C)cn2)cc1              IC50  < 100 nM
3  Cc1ccc(N2CCOc3c(C(=O)Nc4ccc(C)c(OCCO)c4)cccc32)nc1              IC50  < 100 nM
4  O=C(Nc1ccc(Br)c(C(F)(F)F)c1)c1cccc2c1OCCN2c1ncc(CO)cc1Cl              IC50  < 100 nM
5  Cc1cnc(N2c3cccc(C(=O)Nc4ccc(C(F)(F)F)cc4)c3OC[C@@H]2CO)o1              IC50  < 100 nM

# evaluate next
IN: Supply IC50 measured with human VR1 (Homo sapiens) for `COC(=O)c1ccc(N2CCOc3c(C(=O)Nc4ccc(C(C)(C)C)cc4)cccc32)nc1` .
OUT: 100 to 1000 nM

----------
- Test System: UniProt Q8NER1
- Assay Procedure: Inhibition of Ca2+ entry in cells caused by proton, in rat glioma (C6BU1) cells stably expressing human VR1 (Fura 2 fluorescence)
- Applied Conditions: inhibition of proton-induced Ca2+ entry
Measurement Name: IC50

Record excerpt, results attached:
> print(dat)
                                   molecule     test.system       result
1  O=C(Nc1ccc(OC(F)(F)F)cc1)c1cccc2c1OCCN2c1ncccc1OCc1ccccn1 [Example 1-216]  UniProt Q8NER1  0.1 to 1 µM
2  Cc1ccc(N2CCOc3c(C(=O)N[C@H]4CC[C@H](OCC(C)(C)C)CC4)cccc32)nc1 [Example 1-193]  UniProt Q8NER1     < 0.1 µM
3  COC1CCCN(c2ccc(NC(=O)c3cccc4c3OCCN4c3ccc(C)cn3)cc2F)C1 (stereo not shown) [Example 1-070]  UniProt Q8NER1     < 0.1 µM
4  CCCOc1ccc(NC(=O)c2cccc3c2OCCN3c2ccc(C)cn2)cc1 [Example 1-084]  UniProt Q8NER1     < 0.1 µM
5  Cc1ccc(N2CCOc3c(C(=O)Nc4ccc(N5CCOCC5)c(F)c4)cccc32)nc1 [Example 1-157]  UniProt Q8NER1     < 0.1 µM
6  Cc1ccc(NC(=O)c2cccc3c2OC[C@H](CO)N3c2ncccc2Cl)cc1F [Example 4-13]  UniProt Q8NER1     < 0.1 µM

IN: For COc1cc(NC(=O)c2cccc3c2OCCN3c2ccc(C)cn2)ccc1C [Example 1-172] , write its IC50.
OUT: < 0.1 µM

IN: For N#Cc1ccc(N2CCOc3c(C(=O)Nc4ccc(OC(F)(F)F)cc4)cccc32)nc1 [Example 1-218] , write its IC50.
OUT: 0.1 to 1 µM

IN: For Cc1cccnc1N1c2cccc(C(=O)Nc3ccc(OC(C)(C)C)c(F)c3)c2OC[C@@H]1CO [Example 4-43] , write its IC50.
OUT: < 0.1 µM

IN: For CC(O)c1cnc(N2CCOc3c(C(=O)Nc4ccc(C(F)(F)F)cc4)cccc32)c(Cl)c1 (single isomer, unassigned; (+)) [Example 2-12] , write its IC50.
OUT: < 0.1 µM

IN: For CC(O)C1COc2c(C(=O)Nc3ccc(OC(F)(F)F)cc3)cccc2N1c1ncccc1Cl (stereo not shown) [Example 4-56] , write its IC50.
OUT: < 0.1 µM

IN: For CCC[C@H]1CC[C@H](NC(=O)c2cccc3c2OCCN3c2ccc(C)cn2)CC1 [Example 1-192] , write its IC50.
OUT: < 0.1 µM

IN: For O=C(O)c1cnc(N2CCOc3c(C(=O)Nc4ccc(OC(F)(F)F)cc4)cccc32)c(Cl)c1 [Example 1-196] , write its IC50.
OUT: 0.1 to 1 µM

IN: For CC(C)COc1cccc(NC(=O)c2cccc3c2OCCN3c2ncccc2Cl)c1 [Example 1-045] , write its IC50.
OUT: < 0.1 µM

IN: For N#Cc1cccnc1N1CCOc2c(C(=O)Nc3ccc(OC(F)(F)F)cc3)cccc21 [Example 1-203] , write its IC50.
OUT: < 0.1 µM

IN: For CC1(C)CN(c2ncccc2Cl)c2cccc(C(=O)Nc3ccc(C(C)(C)C)cc3)c2O1 [Example 1-018] , write its IC50.
OUT: 0.1 to 1 µM

IN: For CC(C)(C)c1ccc(NC(=O)c2cccc3c2OCCN3c2ccc([N+](=O)[O-])cn2)cc1 [Example 1-140] , write its IC50.
OUT: < 0.1 µM

IN: For O=C(Nc1ccc(OC(F)(F)F)cc1)c1cccc2c1OCCN2c1ncc(CO)cc1Cl [Example 2-03] , write its IC50.
OUT: < 0.1 µM

IN: For O=C(Nc1ccc(C(F)(F)F)cc1)c1cccc2c1OC[C@H](C(=O)O)N2c1ncccc1Cl [Example 1-229] , write its IC50.
OUT: 0.1 to 1 µM

IN: For CC(C)Oc1ccc(NC(=O)c2cccc3c2OC[C@H](CO)N3c2ncccc2Cl)cc1C(F)(F)F [Example 4-21] , write its IC50.
OUT: < 0.1 µM

IN: For O=C(Nc1ccc(C(F)(F)F)cc1)c1cccc2c1OC[C@H](CO)N2c1ccc(Cl)cc1 [Example 7-10] , write its IC50.
OUT: < 0.1 µM

IN: For O=C(Nc1ccc(C(F)(F)F)c(F)c1)c1cccc2c1OC[C@H](CO)N2c1ccccc1Cl [Example 7-06] , write its IC50.
OUT: < 0.1 µM
